Target entity: T1, human CD20 expressed on Raji cells (CD3-, CD20+ human B-cell line) (human, UniProt P11836 1-297)
T1 sequence: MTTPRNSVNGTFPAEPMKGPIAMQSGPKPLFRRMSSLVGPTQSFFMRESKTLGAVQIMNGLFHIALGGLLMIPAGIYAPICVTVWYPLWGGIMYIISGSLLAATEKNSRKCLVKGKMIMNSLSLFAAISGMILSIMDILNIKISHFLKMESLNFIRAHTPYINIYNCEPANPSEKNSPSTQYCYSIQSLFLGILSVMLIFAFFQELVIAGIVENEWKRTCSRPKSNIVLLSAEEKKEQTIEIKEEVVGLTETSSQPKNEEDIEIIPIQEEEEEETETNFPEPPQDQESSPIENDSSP
Assay summary: FACS on Raji cells
Quantity name: EC50 (nM)
# unit: nM | format: bare number

Fill blank: measured EC50 of the binder BS3/20-002 (bispecific antibody, V domains shown) VH 1: EVQLVESGGGLVQPGRSLRLSCVASGFTFNDYAMHWVRQAPGKGLEWVSVISWNSDSIGYADSVKGRFTISRDNAKNSLYLQMHSLRAEDTALYYCAKDNHYGSGSYYYYQYGMDVWGQGTTVTVSS VH 2: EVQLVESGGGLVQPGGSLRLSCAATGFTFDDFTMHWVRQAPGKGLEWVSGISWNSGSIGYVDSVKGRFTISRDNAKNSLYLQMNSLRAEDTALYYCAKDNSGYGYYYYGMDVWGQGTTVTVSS VL: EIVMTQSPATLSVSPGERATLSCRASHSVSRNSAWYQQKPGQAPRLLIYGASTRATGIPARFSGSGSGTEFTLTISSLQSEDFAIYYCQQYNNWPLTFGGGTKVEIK is ____.
11.5
